molecular target: chemokine receptor CXCR7 (UniProt P25106 1-362, limits assumed); test: cell-based or functional assay
Sequence (P25106 whole entry): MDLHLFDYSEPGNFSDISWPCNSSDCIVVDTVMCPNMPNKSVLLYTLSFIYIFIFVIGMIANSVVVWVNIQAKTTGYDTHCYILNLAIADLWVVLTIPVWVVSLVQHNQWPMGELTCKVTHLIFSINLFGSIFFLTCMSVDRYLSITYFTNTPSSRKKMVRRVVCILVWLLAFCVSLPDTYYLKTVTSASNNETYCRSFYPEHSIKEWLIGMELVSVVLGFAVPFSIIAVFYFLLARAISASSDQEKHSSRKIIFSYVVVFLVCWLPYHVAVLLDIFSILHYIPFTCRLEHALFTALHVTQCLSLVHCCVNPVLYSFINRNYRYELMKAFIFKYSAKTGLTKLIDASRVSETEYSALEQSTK
Square brackets hold non-standard residues; d marks the D form. Primed or numbered codes have the meaning given here. dPro(cis-4-NH2) = N[C@H]1CN[C@@H](C(=O)O)C1; hArg = N=C(N)NCCCC[C@H](N)C(=O)O; Tic = O=C(O)[C@@H]1Cc2ccccc2CN1; aThr = C[C@H](O)[C@H](N)C(=O)O; Orn(Ar4) = not defined here; Orn(Ar7) = not defined here; Orn = NCCC[C@H](N)C(=O)O; Pip′ = not defined here
β-Arrestin EC50 reference
# number only, unit nM dropped from output

Sample answers from the record:
• cyclo(I[dR]RI[dP]T) (SMILES CC[C@H](C)[C@@H]1NC(=O)[C@H]([C@@H](C)O)NC(=O)[C@H]2CCCN2C(=O)[C@H]([C@@H](C)CC)NC(=O)[C@H](CCCNC(=N)N)NC(=O)[C@@H](CCCNC(=N)N)NC1=O) [cyclo(-Ile-^DArg-Arg-Ile-^DPro-Thr-)] = 79.7
• cyclo([Ala(1Pyraz)][dF]WR[dPro(cis-4-NH2)][Tic]) [cyclo(-Ala(1Pyraz)-^DPhe-Trp-Arg-^DPro((4R)NH2)-Tic-)] = 29.9

input: Tell me measured β-Arrestin EC50 for cyclo([hArg][dF]WR[dPro(cis-4-NH2)][Tic]) (SMILES N=C(N)NCCCC[C@@H]1NC(=O)[C@@H]2Cc3ccccc3CN2C(=O)[C@H]2C[C@@H](N)CN2C(=O)[C@H](CCCNC(=N)N)NC(=O)[C@H](Cc2c[nH]c3ccccc23)NC(=O)[C@@H](Cc2ccccc2)NC1=O) [cyclo(-hArg-^DPhe-Trp-Arg-^DPro((4R)NH2)-Tic-)] please.
output: 12.2

input: Tell me measured β-Arrestin EC50 for cyclo([Pip′][dF]WR[dPro(cis-4-NH2)][Tic]) [cyclo(-Pip-^DPhe-Trp-Arg-^DPro((4R)NH2)-Tic-)] please.
output: 882

input: Tell me measured β-Arrestin EC50 for cyclo(I[dR][Orn(Ar4)]W[dP]T) (reading uncertain; also: printed as cyclo(-Ile-^DArg-Orn(Ar4)-Trp-^DPro-Thr-)) [cyclo(-Ile-^DArg-Orn(Ar4)-Trp-^DPro-Thr-)] please.
output: 4.6

input: Tell me measured β-Arrestin EC50 for cyclo(I[dR]RW[dP][aThr]) (SMILES CC[C@H](C)[C@@H]1NC(=O)[C@H]([C@H](C)O)NC(=O)[C@H]2CCCN2C(=O)[C@H](Cc2c[nH]c3ccccc23)NC(=O)[C@H](CCCNC(=N)N)NC(=O)[C@@H](CCCNC(=N)N)NC1=O) [cyclo(-Ile-^DArg-Arg-Trp-^DPro-alloThr-)] please.
output: 292

input: Tell me measured β-Arrestin EC50 for cyclo(I[dR][Orn(Ar7)]W[dP]T) (reading uncertain; also: printed as cyclo(-Ile-^DArg-Orn(Ar7)-Trp-^DPro-Thr-)) [cyclo(-Ile-^DArg-Orn(Ar7)-Trp-^DPro-Thr-)] please.
output: 336

input: Tell me measured β-Arrestin EC50 for cyclo(I[dR][Orn]W[dP]T) (SMILES CC[C@H](C)[C@@H]1NC(=O)[C@H]([C@@H](C)O)NC(=O)[C@H]2CCCN2C(=O)[C@H](Cc2c[nH]c3ccccc23)NC(=O)[C@H](CCCN)NC(=O)[C@@H](CCCNC(=N)N)NC1=O) [cyclo(-Ile-^DArg-Orn-Trp-^DPro-Thr-)] please.
output: 816

input: Tell me measured β-Arrestin EC50 for cyclo(W[dR]RW[dP]T) (SMILES C[C@@H](O)[C@@H]1NC(=O)[C@H]2CCCN2C(=O)[C@H](Cc2c[nH]c3ccccc23)NC(=O)[C@H](CCCNC(=N)N)NC(=O)[C@@H](CCCNC(=N)N)NC(=O)[C@H](Cc2c[nH]c3ccccc23)NC1=O) [cyclo(-Trp-^DArg-Arg-Trp-^DPro-Thr-)] please.
output: 538

The origin of these recorded values is patent US20130225506A1.
